# melting point per record follows
measured_property: melting point

{"molecular_string": "COCN(C(=O)OC(C)(C)C)[C@H]1CCC[C@H](Cc2ccc(F)cc2F)[C@@H](OCc2ccccc2)[C@H](C)OC1=O", "observed": "108 to 115 °C"}
{"molecular_string": "Cc1ccc(C[C@H]2CCC[C@H](NC(=O)OC(C)(C)C)C(=O)O[C@@H](C)[C@@H]2OCc2ccccc2)cc1", "observed": "108 to 110 °C"}
{"molecular_string": "COc1ccnc(C(=O)N[C@H]2CCC[C@H](Cc3ccc(F)cc3F)[C@@H](OCC(C)C)[C@H](C)OC2=O)c1O", "observed": "69 to 72 °C"}
{"molecular_string": "COc1ccnc(C(=O)N[C@H]2CCC[C@H](Cc3ccc(F)cc3F)[C@@H](OCC(C)C)[C@H](C)OC2=O)c1OCOC(C)=O", "observed": "48 to 53 °C"}
{"molecular_string": "COc1ccnc(C(=O)N[C@H]2CCC[C@H](Cc3ccc(F)cc3F)[C@@H](OCCCc3ccccc3)[C@H](C)OC2=O)c1OCOC(C)=O", "observed": "40 to 45 °C"}
{"molecular_string": "COc1ccnc(C(=O)N[C@H]2CCC[C@H](Cc3ccc(F)cc3F)[C@@H](OC(=O)c3ccco3)[C@H](C)OC2=O)c1OCOC(=O)C(C)C", "observed": "68 to 72 °C"}

---

Tested on: Mycosphaerella graminicola; Anamorph: Septoria tritici
Test: Leaf Blotch of Wheat (SEPTTR) disease control
Format: in vivo
Details: Zymoseptoria tritici, 72 h, 3 Day Curative, rate 121.5 g/H; read-out: SEPTTR 3 DC disease control

{"molecular_string": "C=CCO[C@@H]1[C@@H](Cc2ccc(F)cc2)CCC[C@H](NC(=O)c2nccc(OC)c2OCOC(=O)COCC)C(=O)O[C@H]1C", "target_desc": "Mycosphaerella graminicola; Anamorph: Septoria tritici", "pest or weed control at 121.5 g/ha": "80 to 100%"}
{"molecular_string": "COc1ccnc(C(=O)N[C@H]2CCC[C@H](Cc3ccc(F)cc3F)[C@@H](OCc3ccccc3)[C@H](C)OC2=O)c1OCOC(C)=O", "target_desc": "Mycosphaerella graminicola; Anamorph: Septoria tritici", "pest or weed control at 121.5 g/ha": "80 to 100%"}
{"molecular_string": "COc1ccnc(C(=O)N[C@H]2CCC[C@H](Cc3ccc(F)cc3F)[C@@H](OCCCc3ccccc3)[C@H](C)OC2=O)c1OCOC(C)=O", "target_desc": "Mycosphaerella graminicola; Anamorph: Septoria tritici", "pest or weed control at 121.5 g/ha": "0 to 80%"}
{"molecular_string": "COc1ccnc(C(=O)N[C@H]2CCC[C@H](CC3CCCC3)[C@@H](Oc3ccccc3)[C@H](C)OC2=O)c1OC(C)=O", "target_desc": "Mycosphaerella graminicola; Anamorph: Septoria tritici", "pest or weed control at 121.5 g/ha": "80 to 100%"}
{"molecular_string": "COc1ccnc(C(=O)N[C@H]2CCC[C@H](CCC(C)C)[C@@H](OCCCC(F)(F)F)[C@H](C)OC2=O)c1OCOC(C)=O", "target_desc": "Mycosphaerella graminicola; Anamorph: Septoria tritici", "pest or weed control at 121.5 g/ha": "80 to 100%"}
{"molecular_string": "CCOCC(=O)OCOc1c(OC)ccnc1C(=O)N[C@H]1CCC[C@H](CC2CCCCC2)[C@@H](OCC(C)C)[C@H](C)OC1=O", "target_desc": "Mycosphaerella graminicola; Anamorph: Septoria tritici", "pest or weed control at 121.5 g/ha": "0 to 80%"}

---

Test system: Phakopsora pachyrhizi
Test: Asian Soybean Rust (PHAKPA) disease control
Format: in vivo
Settings: Phakopsora pachyrhizi, topical, 72 h, 3 Day Curative, read-out: Disease Control PHAKPA 3DC
measured_property: pest or weed control at 25 ppm

{"molecular_string": "COc1ccnc(C(=O)N[C@H]2CCC[C@H](Cc3ccc(F)cc3F)[C@@H](OCC(C)C)[C@H](C)OC2=O)c1OCOC(C)=O", "target_desc": "Phakopsora pachyrhizi", "observed": "0 to 80%"}
{"molecular_string": "CCCO[C@@H]1[C@@H](Cc2ccccc2)CCC[C@H](NC(=O)c2nccc(OC)c2OCOC(=O)COCC)C(=O)O[C@H]1C", "target_desc": "Phakopsora pachyrhizi", "observed": "0 to 80%"}
{"molecular_string": "COc1ccnc(C(=O)N[C@H]2CCC[C@H](Cc3ccccc3)[C@@H](OCC3CC3)[C@H](C)OC2=O)c1OCOC(=O)C(C)C", "target_desc": "Phakopsora pachyrhizi", "observed": "80 to 100%"}
{"molecular_string": "CCCO[C@@H]1[C@@H](Cc2ccc(F)cc2)CCC[C@H](NC(=O)c2nccc(OC)c2OCOC(=O)COCC)C(=O)O[C@H]1C", "target_desc": "Phakopsora pachyrhizi", "observed": "0 to 80%"}
{"molecular_string": "CCOCC(=O)OCOc1c(OC)ccnc1C(=O)N[C@H]1CCC[C@H](Cc2ccccc2)[C@@H](OCC(C)C)[C@H](C)OC1=O", "target_desc": "Phakopsora pachyrhizi", "observed": "0 to 80%"}
{"molecular_string": "CCOCC(=O)OCOc1c(OC)ccnc1C(=O)N[C@H]1CCC[C@H](CCF)[C@@H](OCC(C)C)[C@H](C)OC1=O", "target_desc": "Phakopsora pachyrhizi", "observed": "80 to 100%"}
{"molecular_string": "COc1ccnc(C(=O)N[C@H]2CCC[C@H](CC(F)F)[C@@H](Oc3ccccc3)[C@H](C)OC2=O)c1OCOC(C)=O", "target_desc": "Phakopsora pachyrhizi", "observed": "80 to 100%"}
{"molecular_string": "CCCO[C@@H]1[C@@H](Cc2ccc(OC)cc2)CCC[C@H](NC(=O)c2nccc(OC)c2OCOC(C)=O)C(=O)O[C@H]1C", "target_desc": "Phakopsora pachyrhizi", "observed": "0 to 80%"}
{"molecular_string": "CCCO[C@@H]1[C@@H](CCC(C)C)CCC[C@H](NC(=O)c2nccc(OC)c2OCOC(C)=O)C(=O)O[C@H]1C", "target_desc": "Phakopsora pachyrhizi", "observed": "80 to 100%"}
{"molecular_string": "CCOCC(=O)OCOc1c(OC)ccnc1C(=O)N[C@H]1CCC[C@H](CCOC)[C@@H](OCC(C)C)[C@H](C)OC1=O", "target_desc": "Phakopsora pachyrhizi", "observed": "80 to 100%"}
{"molecular_string": "C=C[C@H]1CCC[C@H](NC(=O)c2nccc(OC)c2OC(C)=O)C(=O)O[C@@H](C)[C@@H]1Oc1ccccc1", "target_desc": "Phakopsora pachyrhizi", "observed": "0 to 80%"}
{"molecular_string": "CCOCC(=O)OCOc1c(OC)ccnc1C(=O)N[C@H]1CCC[C@H](Cc2ccc(F)cc2)[C@@H](OCC(C)C)[C@H](C)OC1=O", "target_desc": "Phakopsora pachyrhizi", "observed": "0 to 80%"}
{"molecular_string": "COc1ccnc(C(=O)N[C@H]2CCC[C@H](CCBr)[C@@H](Oc3ccccc3)[C@H](C)OC2=O)c1OC(C)=O", "target_desc": "Phakopsora pachyrhizi", "observed": "0 to 80%"}

---

# pest or weed control at 25 ppm per record follows
System: Phakopsora pachyrhizi
Assay: Asian Soybean Rust (PHAKPA) disease control
Assay type: in vivo
Details: Phakopsora pachyrhizi, topical, 72 h, 3 Day Curative, read-out: Disease Control PHAKPA 3DC
Method: Technical grades of materials were dissolved in acetone, which were then mixed with nine volumes of water containing 0.011% Tween 20. The fungicide solutions were applied onto soybean seedlings using an automated booth sprayer to run-off. All sprayed plants were allowed to air dry prior to further handling. Soybean plants (variety Williams 82) were grown in soil-less Metro mix, with one plant per pot. Two weeks old seedlings were used for testing. […] Disease severity was assessed on the sprayed leaves.

{"molecular_string": "COc1ccnc(C(=O)N[C@H]2CCC[C@H](CC3CCCC3)[C@@H](OC(=O)C(C)C)[C@H](C)OC2=O)c1OCOC(C)=O", "pest or weed control at 25 ppm": "0 to 80%"}
{"molecular_string": "COc1ccnc(C(=O)N[C@H]2CCC[C@H](CC(F)F)[C@@H](Oc3ccccc3)[C@H](C)OC2=O)c1OC(C)=O", "pest or weed control at 25 ppm": "80 to 100%"}
{"molecular_string": "COc1ccnc(C(=O)N[C@H]2CCC[C@H](C)[C@@H](Oc3ccccc3)[C@H](C)OC2=O)c1OCOC(=O)C(C)C", "pest or weed control at 25 ppm": "80 to 100%"}
{"molecular_string": "CCOCC(=O)OCOc1c(OC)ccnc1C(=O)N[C@H]1CCC[C@H](Cc2ccc(F)cc2)[C@@H](OCC2CC2)[C@H](C)OC1=O", "pest or weed control at 25 ppm": "0 to 80%"}
{"molecular_string": "COCC[C@H]1CCC[C@H](NC(=O)c2nccc(OC)c2OC(C)=O)C(=O)O[C@@H](C)[C@@H]1Oc1ccccc1", "pest or weed control at 25 ppm": "80 to 100%"}
{"molecular_string": "CCOCC(=O)OCOc1c(OC)ccnc1C(=O)N[C@H]1CCC[C@H](CCC(C)C)[C@@H](OCC2CC2)[C@H](C)OC1=O", "pest or weed control at 25 ppm": "80 to 100%"}
